Reference for the values: the supplement of paper PMC10567573

B1: SLC6A17 (parent)
chain: HMFTPKLDKMLDPQVWREAATQVF

Variants of: B1
assay_overview: protein stability index of a GFP-peptide fusion (GPS, HEK-293T) (PSI 1-6); higher = more stable;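 also: lentivirally expressed fusions sorted by FACS into six bins by GFP to DsRed ratio, PSI derived from sequencing read proportions per bin multiplied by bin number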
recorded_conditions: c terminus: a fixed tail appended
Please enter T where protein stability index is greater than or equal to 2, and F where it is lower.

mutation_annotation=Q22A class=F
mutation_annotation=D8N class=T
mutation_annotation=W16F class=T
mutation_annotation=D8A class=F
mutation_annotation=V15Y class=T
mutation_annotation=T4D class=F
mutation_annotation=F24D class=T
mutation_annotation=P5S class=T
mutation_annotation=W16D class=T
mutation_annotation=T21K class=T
mutation_annotation=K9P class=T
mutation_annotation=L11I class=T
mutation_annotation=Q14T class=T
mutation_annotation=Q14K class=T
mutation_annotation=L7C class=F
mutation_annotation=F3D class=T
mutation_annotation=D8F class=T
mutation_annotation=T21L class=F
mutation_annotation=L7G class=T
mutation_annotation=D12F class=F
mutation_annotation=E18V class=T
mutation_annotation=P5Y class=T
mutation_annotation=D12C class=T
mutation_annotation=R17C class=F
mutation_annotation=K9Q class=F
mutation_annotation=L7R class=F
mutation_annotation=K6N class=T
mutation_annotation=E18C class=F
mutation_annotation=F3H class=T
mutation_annotation=K6W class=T
mutation_annotation=V23D class=T
mutation_annotation=P13T class=F
mutation_annotation=P13M class=T
mutation_annotation=M2G class=F
mutation_annotation=M10E class=T
mutation_annotation=T21F class=T
